test system: 242566-281-R-J2-PDC complex spheroid viability; test: Anticancer human tumor 242566-281-R-J2-PDC patient-derived pancreatic carcinoma cell line growth inhibition [RAS]; details: second compound 0.0949 µM; first compound 0.316 µM; active compounds read low;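 further: spheroids exposed to compound for 7 days before readout; 100% = DMSO vehicle control wells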
# maps each entry to its viability, T/C
Write it as a number; the unit % goes unstated.

Exercise: Observed viability, T/C on 242566-281-R-J2-PDC complex spheroid viability for CCC(CC)c1cc(NC2CCC(N)C2)n2nccc2n1 (centres undefined) + CCn1c(-c2cccnc2C(C)OC)c2c3cc(ccc31)N1CCOC(CC(NC(=O)C(C(C)C)N(C)C(=O)C3(F)CCN(C(=O)C#CC(C)(C)N(C)C)CC3)C(=O)N3CCCC(N3)C(=O)OCC(C)(C)C2)C1 , please.
Key: 90

Exercise: Observed viability, T/C on 242566-281-R-J2-PDC complex spheroid viability for C=CC(=O)N1CCN(c2nc(OCC3CCCN3C)nc3c(F)c(-c4nc(N)cc(C)c4C(F)(F)F)c(Cl)cc23)C(C)C1 (centres undefined) + CCn1c(-c2cc(N3CCN(C)CC3)cnc2C(C)OC)c2c3cc(ccc31)-c1csc(n1)CC(NC(=O)C1CC1C)C(=O)N1CCCC(N1)C(=O)OCC(C)(C)C2 , please.
Key: 20.1

Exercise: Observed viability, T/C on 242566-281-R-J2-PDC complex spheroid viability for NC1c2ccccc2OC12CCN(c1cnc3c(N4CCCc5ncccc54)n[nH]c3n1)CC2 (centres undefined) + CCn1c(-c2cc(N3CCN(C)CC3)cnc2C(C)OC)c2c3cc(ccc31)-c1csc(n1)CC(NC(=O)C1CC1C)C(=O)N1CCCC(N1)C(=O)OCC(C)(C)C2 , please.
Key: 14.8

Exercise: Observed viability, T/C on 242566-281-R-J2-PDC complex spheroid viability for Cc1nc(N2CCC3(CC2)COC(C)C3N)c(CO)nc1Sc1ccnc(N)c1Cl (centres undefined) + CCn1c(-c2cccnc2C(C)OC)c2c3cc(ccc31)N1CCOC(CC(NC(=O)C(C(C)C)N(C)C(=O)C3(F)CCN(C(=O)C#CC(C)(C)N(C)C)CC3)C(=O)N3CCCC(N3)C(=O)OCC(C)(C)C2)C1 , please.
Key: 79.7
